assay_system: 5-HT2B receptor (Homo sapiens)
Construct: host or cells: CHO-K1
Sequence (P41595 whole entry): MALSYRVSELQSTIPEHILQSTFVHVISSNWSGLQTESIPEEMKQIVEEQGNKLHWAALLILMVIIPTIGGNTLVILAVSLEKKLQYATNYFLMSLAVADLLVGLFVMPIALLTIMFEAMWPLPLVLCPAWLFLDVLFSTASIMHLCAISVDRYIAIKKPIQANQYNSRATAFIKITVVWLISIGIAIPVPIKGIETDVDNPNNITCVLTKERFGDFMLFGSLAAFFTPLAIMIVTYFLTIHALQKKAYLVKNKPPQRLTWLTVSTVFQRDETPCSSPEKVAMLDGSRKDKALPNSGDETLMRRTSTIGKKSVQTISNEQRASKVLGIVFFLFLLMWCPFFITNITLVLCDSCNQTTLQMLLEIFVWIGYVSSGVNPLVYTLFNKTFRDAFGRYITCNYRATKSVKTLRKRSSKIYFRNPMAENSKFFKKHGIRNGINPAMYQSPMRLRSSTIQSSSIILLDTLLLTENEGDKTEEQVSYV
test_protocol: 5-HT2B receptor agonism, IP-1 accumulation in CHO-K1 cells without prior 5-HT stimulation
Format: cell-based
condition_details: 0.001 uM, % of IP-1 accumulation induced by 5-HT (1 uM)
metric_name: activation at 0.001 µM (%)
Provide only the numeric value, understood in %.

Example results:
# molecule, units, activation at 0.001 µM
data = [
    ("C[C@@H]1CN(C(=N)N)N=C1c1ccccc1O (single isomer, unassigned)", "%", -1),
    ("C[C@@H]1CN(C(=N)NCc2ccccc2)N=C1c1cccc(Cl)c1O (single isomer, unassigned)", "%", 1),
]

Note: attention shifts to another entry.
Lookup: activation at 0.001 µM / 5-HT2B receptor (Homo sapiens) / "N=C(NCc1ccccc1)N1CCC(c2ccccc2Cl)=N1" 3
